TESTED TARGET: TDP-43 RRM1 (human, UniProt Q13148 101-192)
Sequence (Q13148 101-192): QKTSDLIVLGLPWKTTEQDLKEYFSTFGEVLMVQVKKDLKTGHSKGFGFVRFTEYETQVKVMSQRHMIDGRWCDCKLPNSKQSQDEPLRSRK
ASSAY METHOD TEXT: ITC; ITC: 15 mM phosphate pH 6.8, 25 mM KCl, 1 mM TCEP, 25 C; NMR: same buffer, 298 K (SEA-HSQC 310 K); EMSA: 20 mM HEPES pH 7.6, 25 mM KCl, 1 mM TCEP, 2 mM MgCl2, room temperature, 10 pmol DNA in 10 uL
ASSAY SETUP: protein: recombinant; tags: His6 cleaved by TEV; chain copies: 2; single strand
METRIC: pKd
In plain terms, pKd is the concentration in mol/L turned into minus its base-10 logarithm.

**Query** Param item = GTGTGT (ssDNA) [(GT)3] ; retrieve measured pKd.
**Result** 6.03
